Tested on: biotinyl-Met-oxazolone
Test: self-aminoacylation, catalytic enhancement (BMO) (fold over background); higher = more active; k-Seq, kA / k0A0; sequences stand for … in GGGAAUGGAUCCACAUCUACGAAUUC…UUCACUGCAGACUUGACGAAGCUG
Variants at the floor of the assay were thinned out.
Let's look at some sequences and their measured self-aminoacylation.
Reported property: self-aminoacylation

[
  {
    "Sequence chain": "AAGUUCGCUAAUACUCGCAAG [Fam3.1 aminoacylation ribozyme variant]",
    "Result": 1.47
  },
  {
    "Sequence chain": "GUUACCCUGGUCAUCAAGUGA [Fam2.1 aminoacylation ribozyme variant]",
    "Result": 3.81
  },
  {
    "Sequence chain": "UCUACCCUGGUCAUCGAGUGA [Fam2.1 aminoacylation ribozyme variant]",
    "Result": 10.4
  }
]

----------
Tested on: biotinyl-Ile-oxazolone
Experiment: self-aminoacylation, catalytic enhancement (BIO) (fold over background); higher = more active; k-Seq, kA / k0A0; sequences stand for … in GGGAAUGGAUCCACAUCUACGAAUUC…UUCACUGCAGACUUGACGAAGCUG
Variants at the floor of the assay were thinned out.
Please use 1 whenever self-aminoacylation is not below 2, and 0 whenever it is.

[
  {
    "Sequence chain": "CCAGACUUCAAGCAAUCCGUC [Fam1B.1 aminoacylation ribozyme variant]",
    "Target of assay": "biotinyl-Ile-oxazolone",
    "Class": 0
  },
  {
    "Sequence chain": "GUUCACCUAGGUUAUCGGGUG [Fam2.2 aminoacylation ribozyme variant]",
    "Target of assay": "biotinyl-Ile-oxazolone",
    "Class": 1
  },
  {
    "Sequence chain": "AUUACCCCGGUCAUCGAGUGG [Fam2.1 aminoacylation ribozyme variant]",
    "Target of assay": "biotinyl-Ile-oxazolone",
    "Class": 0
  },
  {
    "Sequence chain": "CAACUUCGAACAAUCGGUCUG [Fam1A.1 aminoacylation ribozyme variant]",
    "Target of assay": "biotinyl-Ile-oxazolone",
    "Class": 0
  },
  {
    "Sequence chain": "AUUCAGCUAGGUCAUCGGGUG [Fam2.2 aminoacylation ribozyme variant]",
    "Target of assay": "biotinyl-Ile-oxazolone",
    "Class": 1
  },
  {
    "Sequence chain": "ACUUCCCUGGUCAUCGAGUGA [Fam2.1 aminoacylation ribozyme variant]",
    "Target of assay": "biotinyl-Ile-oxazolone",
    "Class": 1
  },
  {
    "Sequence chain": "AAUCACCUAGGUCAUCGCGUG [Fam2.2 aminoacylation ribozyme variant]",
    "Target of assay": "biotinyl-Ile-oxazolone",
    "Class": 1
  }
]

----------
Tested on: biotinyl-Leu-oxazolone
Experiment: self-aminoacylation, catalytic enhancement (BLO) (fold over background); higher = more active; k-Seq, kA / k0A0; sequences stand for … in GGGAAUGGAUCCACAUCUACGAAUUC…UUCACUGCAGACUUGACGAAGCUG
This sample holds only a part of the variants without activity.
Each entry belongs to exactly one class, chosen by where its self-aminoacylation falls: class 0 = under 1, class 1 = from 1 up to 4, class 2 = 4 and over

[
  {
    "Sequence chain": "UUUACCCUGGUCAACGAGUGA [Fam2.1 aminoacylation ribozyme variant]",
    "Class": "class 2"
  },
  {
    "Sequence chain": "CUACUUAAAACAAUCGGUCCG [Fam1A.1 aminoacylation ribozyme variant]",
    "Class": "class 0"
  },
  {
    "Sequence chain": "UUUCACCUAGGUCAUCUGGUG [Fam2.2 aminoacylation ribozyme variant]",
    "Class": "class 1"
  },
  {
    "Sequence chain": "CCACUUCAACCAAUCGGUCUG [Fam1A.1 aminoacylation ribozyme variant]",
    "Class": "class 1"
  },
  {
    "Sequence chain": "CUACGCUUCAAGCAAUCGGUC [Fam1B.1 aminoacylation ribozyme variant]",
    "Class": "class 1"
  },
  {
    "Sequence chain": "AAGUUAGCUUAUAGUCGCAAG [Fam3.1 aminoacylation ribozyme variant]",
    "Class": "class 1"
  },
  {
    "Sequence chain": "CAACCUCAAACAAUCGGUCUG [Fam1A.1 aminoacylation ribozyme variant]",
    "Class": "class 1"
  },
  {
    "Sequence chain": "AUUCACCAAGGUCAUUGGGUG [Fam2.2 aminoacylation ribozyme variant]",
    "Class": "class 2"
  },
  {
    "Sequence chain": "UUUGCCCUGGUCAUCGAGUGA [Fam2.1 aminoacylation ribozyme variant]",
    "Class": "class 2"
  },
  {
    "Sequence chain": "AUUCGCCUACGUCAUCGGGUG [Fam2.2 aminoacylation ribozyme variant]",
    "Class": "class 2"
  },
  {
    "Sequence chain": "AUUCACCUAGGUCAUCGGCCG [Fam2.2 aminoacylation ribozyme variant]",
    "Class": "class 2"
  },
  {
    "Sequence chain": "CUAAUUCAACCAAUCGGUCUG [Fam1A.1 aminoacylation ribozyme variant]",
    "Class": "class 0"
  },
  {
    "Sequence chain": "CUACUGCAAACAAUCGAUCUG [Fam1A.1 aminoacylation ribozyme variant]",
    "Class": "class 0"
  },
  {
    "Sequence chain": "AUUCACCUAGGUCUACGGGUG [Fam2.2 aminoacylation ribozyme variant]",
    "Class": "class 2"
  },
  {
    "Sequence chain": "CCACUCCUCAAGCAAUCGGUC [Fam1B.1 aminoacylation ribozyme variant]",
    "Class": "class 0"
  },
  {
    "Sequence chain": "AAGUUUGAUACUAGUCGCAAG [Fam3.1 aminoacylation ribozyme variant]",
    "Class": "class 1"
  },
  {
    "Sequence chain": "AGUACCCUAGUCAUCGAGUGA [Fam2.1 aminoacylation ribozyme variant]",
    "Class": "class 2"
  },
  {
    "Sequence chain": "AUUACACUGGUCAUCGAGGGA [Fam2.1 aminoacylation ribozyme variant]",
    "Class": "class 1"
  },
  {
    "Sequence chain": "CUACUUAAAACUAUCGGUCUG [Fam1A.1 aminoacylation ribozyme variant]",
    "Class": "class 0"
  },
  {
    "Sequence chain": "AUUACACUGGUCGUCGAGUGA [Fam2.1 aminoacylation ribozyme variant]",
    "Class": "class 1"
  },
  {
    "Sequence chain": "CUACUUCAAACGAUCCGUCUG [Fam1A.1 aminoacylation ribozyme variant]",
    "Class": "class 0"
  },
  {
    "Sequence chain": "AUUACCCUUGUCAACGAGUGA [Fam2.1 aminoacylation ribozyme variant]",
    "Class": "class 2"
  }
]

----------
Test system: biotinyl-Met-oxazolone
Assay: self-aminoacylation, catalytic enhancement (BMO) (fold over background); higher = more active; k-Seq, kA / k0A0; sequences stand for … in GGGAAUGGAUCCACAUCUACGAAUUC…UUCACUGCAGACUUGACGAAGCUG
This sample holds only a part of the variants without activity.
Let's look at some sequences and their measured self-aminoacylation.
Reported property: self-aminoacylation

[
  {
    "Sequence chain": "ACUCACCUAGAUCAUCGGGUG [Fam2.2 aminoacylation ribozyme variant]",
    "Reported property": "self-aminoacylation",
    "Quantitative result": 2.99
  },
  {
    "Sequence chain": "AUUCACCUAUGGCAUCGGGUG [Fam2.2 aminoacylation ribozyme variant]",
    "Reported property": "self-aminoacylation",
    "Quantitative result": 2.41
  },
  {
    "Sequence chain": "UUACUUCAAACCAUCGGUCUG [Fam1A.1 aminoacylation ribozyme variant]",
    "Reported property": "self-aminoacylation",
    "Quantitative result": 1.06
  },
  {
    "Sequence chain": "GUUACCCUGGUCAUCGAGUUA [Fam2.1 aminoacylation ribozyme variant]",
    "Reported property": "self-aminoacylation",
    "Quantitative result": 12
  }
]

----------
Tested on: biotinyl-Val-oxazolone
Assay: self-aminoacylation, catalytic enhancement (BVO) (fold over background); higher = more active; k-Seq, kA / k0A0; sequences stand for … in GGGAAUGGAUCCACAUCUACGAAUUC…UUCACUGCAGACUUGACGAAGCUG
This sample holds only a part of the variants without activity.
Please use True whenever self-aminoacylation is not below 4, and False whenever it is.

[
  {
    "Sequence chain": "CUACUUCAAACAAACGGUCGG [Fam1A.1 aminoacylation ribozyme variant]",
    "Target of assay": "biotinyl-Val-oxazolone",
    "Class": "False"
  },
  {
    "Sequence chain": "AAGUUUGCUACUAGCCGCAAG [Fam3.1 aminoacylation ribozyme variant]",
    "Target of assay": "biotinyl-Val-oxazolone",
    "Class": "False"
  },
  {
    "Sequence chain": "UUUCACCUAGGUCAUCGAGUG [Fam2.2 aminoacylation ribozyme variant]",
    "Target of assay": "biotinyl-Val-oxazolone",
    "Class": "True"
  },
  {
    "Sequence chain": "AUUGACCUAGGUCACCGGGUG [Fam2.2 aminoacylation ribozyme variant]",
    "Target of assay": "biotinyl-Val-oxazolone",
    "Class": "True"
  },
  {
    "Sequence chain": "CUACUUCGACCAAUCGGUCUG [Fam1A.1 aminoacylation ribozyme variant]",
    "Target of assay": "biotinyl-Val-oxazolone",
    "Class": "False"
  },
  {
    "Sequence chain": "AUUCAUCUAGGUCAUCGUGUG [Fam2.2 aminoacylation ribozyme variant]",
    "Target of assay": "biotinyl-Val-oxazolone",
    "Class": "False"
  }
]
